system: 786-0 renal
Reply using exactly one outcome from active, inactive

Worked examples follow.
INSERT INTO assay_data (mol, qualitative_label) VALUES
  ('CCOc1ccc(Cc2nccc3cc(OCC)c(OCC)cc23)cc1OCC', 'inactive'),
  ('Cc1ccc(/C=C(\C#N)n2nnc3cc(Cl)c(Cl)cc32)cc1', 'inactive');

Enquiry: For O=C1Cc2cc(CCn3ccnc3)c(Cl)cc2N1 , what call appears in the results of this test?
Return: inactive

Enquiry: For O=C(Oc1cccnc1)c1ccccc1Nc1ccnc(C(F)(F)F)c1 , what call appears in the results of this test?
Return: active

Enquiry: For COc1cc(CNC(=O)/C=C/C=C/c2ccc3c(c2)OCO3)ccc1OCc1cn(-c2ccc(Cl)c(Cl)c2)nn1 , what call appears in the results of this test?
Return: inactive

###

Field: GI50. Provide a value for each of the compounds that follow.
test system: UO-31 renal

Observe how each entry below is paired with its result.
INSERT INTO assay_data (compound, result) VALUES
  ('COc1ccc(CN2c3ccccc3Sc3ccccc32)cc1F', '1120 nM'),
  ('CCOc1ccc(Cc2nccc3cc(OCC)c(OCC)cc23)cc1OCC', '2870 nM'),
  ('N#Cc1ccc(Oc2nccc(-c3c(-c4ccc(F)cc4)ncn3C3CCNCC3)n2)cc1', '11900 nM'),
  ('CC(C)=CC/C=C(/C)[C@H]1CC[C@]2(C)[C@@H]1CC[C@@H]1[C@@]3(C)CCC(=O)NC(C)(C)[C@@H]3CC[C@]12C', '15600 nM'),
  ('CCN1CCC[C@H]1c1cc(O)c2c(c1OC)C[C@H]1C[C@H]3[C@H](N)C(=O)C(C(N)=O)=C(O)[C@@]3(O)C(=O)C1=C2O', '52.8 nM'),
  ('Cc1ccc(/C=C(\C#N)n2nnc3cc(Cl)c(Cl)cc32)cc1', '1590 nM'),
  ('CSC1=Nc2c(c(C)c(-c3ccccc3)n2COC(CO)CO)C2=NC(=O)C(C)N12 (stereo not drawn)', '> 100000 nM'),
  ('O=C1NC(=NCC(CO)c2ccccc2)S/C1=C\c1ccc2ncccc2c1 (stereo not drawn)', '> 25000 nM');

Each compound below has a recorded value; state its GI50.
1. CCCNc1nc(N(C)O)nc(N(C)O)n1
2. CCN(CC)CCN1C(=O)c2cccc3c(-c4ccc5c(c4)ncn5C4CCCCC4)ccc(c23)C1=O
3. COc1cc2c(cc1OC)C(CCc1ccc(Cl)cc1)N(C)CC2 (stereo not drawn)

Return:
1. 981 nM
2. 583 nM
3. 20600 nM

Each compound below has a recorded value; state its GI50.
1. COc1ccc2c(c1)C(=O)c1c-2n(CCCN=[N+]=[N-])c(=O)c2ccccc12
2. O=C(Nc1cccc(Cl)c1)Nc1cccc(Cl)c1

Return:
1. 43400 nM
2. > 26000 nM

###

Field: TGI. Provide a value for each of the compounds that follow.
system: MOLT-4 leukemia; assay: NCI tumour cell line growth inhibition, 48 h

INSERT INTO measurements (compound, result) VALUES
  ('COc1cc2c(cc1OCCCCNC(=O)c1cc3ccccc3[nH]1)N=CC1CCCN1C2=O (stereo not given)', '> 100 µM'),
  ('O=C1NC(=NCC(CO)c2ccccc2)S/C1=C\c1ccc2ncccc2c1 (stereo not given)', '> 25 µM');

Each compound below has a recorded value; state its TGI.
1. c1ccc(Cc2cccc3cc(-c4ccc(-c5ccccc5)cc4)[nH]c23)cc1
2. Nn1c(CNc2ccc(-c3nnc(Nc4ccc(Cl)cc4)n3N)cc2)nnc1Nc1ccc(Cl)cc1
3. CN(C)C(=S)Nc1nnc(NC23CC4CC(CC(C4)C2)C3)s1

Return:
1. > 100 µM
2. > 100 µM
3. > 100 µM
